Can you tell me pIC50 for the items I'm about to list?
test system: Cathepsin D (Cat D) (Homo sapiens, UniProt P07339)
Sequence (P07339 65-412, species assumed): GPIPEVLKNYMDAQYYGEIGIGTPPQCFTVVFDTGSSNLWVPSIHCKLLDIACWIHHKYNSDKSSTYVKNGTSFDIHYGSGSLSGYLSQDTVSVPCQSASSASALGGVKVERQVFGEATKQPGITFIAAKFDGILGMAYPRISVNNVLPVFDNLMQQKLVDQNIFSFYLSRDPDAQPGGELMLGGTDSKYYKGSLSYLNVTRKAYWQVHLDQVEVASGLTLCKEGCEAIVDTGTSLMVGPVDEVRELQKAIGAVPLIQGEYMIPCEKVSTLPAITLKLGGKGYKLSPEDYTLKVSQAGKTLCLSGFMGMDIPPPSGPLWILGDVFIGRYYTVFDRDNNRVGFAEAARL
assay remarks: In vitro enzymatic Cathepsin D (Cat D) FRET assay
Type: biochemical
test context: Cathepsin D FRET assay; read-out: CatD IC50
pIC50 (log units): -log10 of the concentration in mol/L.

get_value(item= Cc1cc(C(F)(F)F)cnc1C(=O)Nc1ccc2c(c1)[C@@]1(C)N=C(N)C(C)(C)S(=O)(=O)[C@]1(F)CCO2 [Example 93] , readout=pIC50) returns 3.29

get_value(item= CC1(C)C(N)=N[C@]2(C)c3cc(NC(=O)c4ccc(OCC(F)F)cn4)ccc3OCC[C@H]2S1(=O)=O [Example 96] , readout=pIC50) returns 2.93
